test system: GM3 expression on the cell surface, B16 mouse melanoma cells; experiment: cell based phenotypic assay, cell surface GM3 by antibody mediated immunofluorescence, B16 (GM3 B16 IC50); details: Mus musculus, B16 mouse melanoma cells; 50% inhibition of GM3 expression on the cell surface; read-out: GM3 B16 IC50
// reported IC50 per item

Guide cases for IC50, answers given:
compound | assaySystem | assayValue
CNC(=O)c1cccc(Oc2cccc(C(C)(C)NC(=O)OC3CCN4CCC3CC4)c2)c1 (centres unmarked) | GM3 expression on the cell surface, B16 mouse melanoma cells | 1100 nM
COCCOCc1ccc(-c2ccnc(N3CCC(F)(C(=O)NC4(C)CCN5CCC4CC5)CC3)n2)cc1 (centres unmarked) | GM3 expression on the cell surface, B16 mouse melanoma cells | 109 nM
CC1(NC(=O)C2CCN(c3cncc(-c4ccc(F)cc4)c3)CC2)CCN2CCC1CC2 (centres unmarked) | GM3 expression on the cell surface, B16 mouse melanoma cells | 299 nM

q: What value of measured IC50 is listed for COCCOCc1ccc(-c2ccc(C3(NC(=O)N[C@]4(C)CN5CCC4CC5)CC3)cc2)cc1 ?
a: 87 nM

q: What value of measured IC50 is listed for CC1(NC(=O)C2CCN(c3ccc(-c4ccccc4)cc3)CC2)CN2CCC1CC2 (centres unmarked) ?
a: 1800 nM

----------
target: glucosylceramide synthase (Homo sapiens); construct: Microsomes were isolated from A375 human melanoma cells; endogenous in cells; assay: microsomal assay measuring conversion of ceramide to glucosylceramide by HPLC (GCS IC50); details: concentration causing 50% inhibition of glucosylceramide synthase activity
Sequence (Q16739 whole entry): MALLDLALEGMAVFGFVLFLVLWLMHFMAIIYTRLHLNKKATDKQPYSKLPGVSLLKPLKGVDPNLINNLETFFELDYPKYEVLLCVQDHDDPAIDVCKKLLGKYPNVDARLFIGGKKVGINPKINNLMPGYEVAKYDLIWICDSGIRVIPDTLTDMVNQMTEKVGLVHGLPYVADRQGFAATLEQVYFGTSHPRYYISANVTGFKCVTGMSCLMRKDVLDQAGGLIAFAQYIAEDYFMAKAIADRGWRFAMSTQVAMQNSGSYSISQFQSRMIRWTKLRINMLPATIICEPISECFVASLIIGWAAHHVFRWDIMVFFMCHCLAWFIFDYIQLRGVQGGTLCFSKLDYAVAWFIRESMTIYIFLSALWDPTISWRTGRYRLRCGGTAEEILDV
readoutLabel: pIC50
Here pIC50 is given on a logarithmic scale as minus log10 of the concentration in mol/L.

Guide cases for pIC50, answers given:
molecule | pIC50
CNC(=O)c1ccc(Oc2ccc(C(C)(C)NC(=O)NC3(C)CN4CCC3CC4)cc2)cc1 (centres unmarked) | 6.73
COCCCOc1cnc(-c2cccc(C(C)(C)NC(=O)OC3CCN4CCC3CC4)c2)nc1 (centres unmarked) | 7.01
COCCOc1cccc(-c2ccc(C(C)(C)NC(=O)N3CCN4CCC3CC4)cc2)c1 | 6.59
CCC1(NC(=O)NC(C)(C)c2ccc(-c3ccc(OCCOC)cc3)cc2)CN2CCC1CC2 (centres unmarked) | 8.25
O=C(OC1CN2CCC1CC2)N1CCN(c2ccc(-c3ccccc3)cc2)CC1 (centres unmarked) | 5.25
O=C(N1CCN(c2ccccc2)CC1)N1CCN2CCC1CC2 | 4.68
COCCOc1ccc(-c2ccc(C3(NC(=O)NC4(C)CN5CCC4CC5)CC3)cc2)cc1 (centres unmarked) | 8.07
CN(C)C(=O)c1ccc(Oc2ccc(C(C)(C)NC(=O)NC3(C)CCN4CCC3CC4)cc2)cc1 (centres unmarked) [Example 285] | 7.79

q: What value of measured pIC50 is listed for CC(C)(NC(=O)OC1CN2CCC1CC2)c1ccc(-c2ccc(C(=O)N3CC(F)(F)C3)cc2)cc1 (centres unmarked) ?
a: 6.97

q: What value of measured pIC50 is listed for O=C(NC1CN2CCC1CC2)N1CCN(c2cccc(-c3ccccc3)c2)CC1 (centres unmarked) ?
a: 5.61

q: What value of measured pIC50 is listed for COCc1ccc(-c2ccnc(N3CCC(C(=O)NC4(C)CN5CCC4CC5)CC3)n2)cc1 (centres unmarked) ?
a: 8.46

q: What value of measured pIC50 is listed for COCCOc1ccc(-c2nc(C(C)(C)NC(=O)OC3CN4CCC3CC4)cs2)cc1 (centres unmarked) ?
a: 6.44

Every entry's value here was drawn from patent US12060349B2.
